// provenance: a melting point compilation (Tetko et al.; mined from patent text by program, amines drawn as free bases though some values may be those of a salt)

A collection of compounds and their measured melting point

Answered examples (8):
Identify measured melting point corresponding to O=C1c2cccc(SCCC(O)O)c2C(=O)c2cccc(SCCC(O)O)c21
238 to 239 °C

For the compound CC(c1ccc2c(=O)c3ccccc3ccc2c1)C1N(c2ccccc2)CCN1c1ccccc1 (stereo not given) , give its measured melting point value.
81 to 89 °C

Determine its reported melting point: CC1(C)SC(c2ccc(O)cc2)NC1C(=O)O (stereo not given)
207 to 209 °C

Respond only with melting point recorded for O=C(NCCCn1ccnc1)c1[nH]c2ccc(Cl)cc2c1S(=O)(=O)c1ccccc1
216 to 218 °C

Give reported melting point value for COC(=O)C(O[Si](C)(C)C(C)(C)C)c1ccccc1O (stereo not given)
103 to 104 °C

Supply melting point value. Item: O=C(Oc1ccc(CS(=O)(=O)Cc2ccc(OC(=O)C3CC3)c([N+](=O)[O-])c2)cc1[N+](=O)[O-])C1CC1
114 to 116 °C

Return melting point (reported value) for this compound: CC1C(=O)N(c2ccccc2)C(=S)N1c1ccc(Oc2ccc(O)cc2)cc1 (stereo not given)
106 to 108 °C

Hello, please tell me recorded melting point for this one: CCc1sc2ccc(C)cc2c1S(=O)(=O)Nc1onc(C)c1Br
176 to 178 °C

New cases:
Hello, please tell me recorded melting point for this one: O=c1ncc(Br)cn1CC(O)C(Cl)(Cl)Cl (stereo not given)
210 to 212 °C

Identify the reported melting point for the following entry. CCOc1ccccc1C(O)c1cc(Cl)ccc1N (stereo not given)
80 to 81 °C

Input COc1ccccc1-c1ccc2cnc(Nc3ccc(N4CCN(CC(N)=O)CC4)c(F)c3)nn12 , output reported melting point.
186 °C

Complete the entry with melting point for CCCC(=O)c1noc2ccccc12
33 to 35 °C

Return reported melting point. Input compound: COC(=O)C(C)(SC)c1ccc(N2CCCCC2)c(Cl)c1 (stereo not given)
83.5 to 85 °C

Quote melting point reported for COc1ccc(-n2nc(Sc3ccc(C(C)(C)C)cc3)c(C)c(C#N)c2=O)cc1 please.
186 to 188 °C

Give a short answer stating reported melting point for CCC(Oc1ccc(Cl)c(C)c1)C(=O)NCc1ccccc1Cl (stereo not given) .
107 to 109 °C

Quickly give me recorded melting point for CCCc1c(OCCCSc2nc3ccc(C(=O)O)cc3[nH]2)ccc(C(C)=O)c1OC(C)=O
85 to 87 °C

Item COC(=O)/C=C/c1ccc(-c2nc(NC(C)=O)sc2Cc2ccc(S(C)(=O)=O)cc2)cc1 : provide melting point
217 to 218 °C

For O=C1NCCN1C1CCN(CCC2COc3ccccc3O2)CC1 (stereo not given) , write its melting point.
155 to 157 °C

Give the value of melting point reported for the following: CNc1nc(-c2ccc(-c3ccccc3)cc2)c(C(=O)OC)s1
> 230 °C

For the compound COc1ccc(C2CC(=O)Nc3ccccc3C(=O)C2)cc1 (stereo not given) , report melting point.
138 to 140 °C

----------
READOUT: melting point (°C)
Lab book: enter the figure in °C, no units written.

Identify measured melting point associated with COc1cccc(S)c1S(=O)(=O)NC(C)(C)C
210

Look up and report measured melting point for this entry: Cc1cn2nc(Cl)ccc2n1
131

Return value of melting point for input O=C1[C@@H](N2C(=O)c3ccccc3C2=O)[C@@H](CCl)N1Cc1ccccc1 (relative stereo) , no commentary.
149

More entries:
Provide measured melting point value, entry: N#Cc1c(N2CCN(C(=O)c3cccs3)CC2)c2cc(F)ccc2n(Cc2ccccc2)c1=O
246

Hello, please tell me recorded melting point for this one: COc1cc(OC)c(C2CCN(C)CC2O)c(O)c1C(C)=O (stereo not given)
216

----------
READOUT: melting point

State its melting point: Cc1cc(Cl)c(S(C)(=O)=O)cc1C(=O)O
180 to 183 °C

Quick one: give measured melting point for COc1cc(-c2ccc3n[nH]c(=O)n3n2)cc(OC)c1OC
289 to 290 °C

Using the record for COC(=O)c1ccc2c(c1)C(=O)CC(C)(COc1ccc([N+](=O)[O-])cc1)O2 (stereo not given) , state its measured melting point.
144 to 145 °C

Continuing:
Recall and state the measured melting point for N#Cc1ccc(CNc2cc(C(N)=O)c([N+](=O)[O-])cc2[N+](=O)[O-])cc1 .
201 to 203 °C

Report melting point for CCSc1nc2c(C(=O)OC)sc(C)c2[nH]1
159 to 160 °C

----------
READOUT: melting point

Some compounds with recorded melting point:
State its melting point: CNC(=O)Oc1ccc(NC(=O)COC)c(C)c1
130 to 132 °C

Name the recorded melting point of the compound listed here: O=S(=O)(NC1(CO)CCCC1)c1ccc2c(Cl)cnc(Cl)c2c1
148 to 150 °C

Note down melting point recorded for NS(=O)(=O)c1cc(C(=O)c2ccc3c(c2)CCC3)ccc1Cl
164 to 166 °C

// fetch melting point given entry COc1cccc2c1nc(C1CC1)n2CC=C(C)C
41 to 42 °C

Supply melting point value. Item: CC1=C(C)C(=O)C(CCCCO)=C(C)C1=O
36 to 38 °C

Please examine the following record next.
Annotate the compound CCOC(=O)C1=C(C)NC(=S)N(C(=O)OCC)C1c1cccc(OCc2ccccc2)c1 (stereo unspecified) with its measured melting point.
119 to 121 °C

----------
READOUT: melting point

Look up and report measured melting point for this entry: CCn1c(C(O)(C2CC2)C2CC2)nc(-c2ccncc2)c1-c1ccc(Cl)cc1
185 to 188 °C

Return the recorded melting point value; entry: COc1ccc(Oc2c(Cl)cc(-n3ncc(=O)[nH]c3=O)cc2Cl)cc1NS(=O)(=O)c1ccc(F)cc1
90 to 96 °C

Return reported melting point. Input molecule: CCCCCCCCC(=O)Nc1cc([N+](=O)[O-])cc([N+](=O)[O-])c1
72.5 to 73 °C

Specify measured melting point for CC1(C)OC(c2ccc(S(C)(=O)=O)cc2)=C(c2ccc(OC(F)(F)F)cc2)C1=O .
118 to 120 °C

Annotate the molecule COc1ccc(Cc2nc3c(N)nc4ccccc4c3n2CCOc2ccccc2)cc1 with its measured melting point.
201 to 204 °C

Return value of melting point for input O=C(O)[C@@H]1CCCN1C(=O)C1CCC1S (stereo not given in full) , no commentary.
145 to 146 °C

Next up:
Let me know recorded melting point for COc1ccc(CS(=O)(=O)CC(=O)O)cc1[N+](=O)[O-] , thanks.
96 to 98 °C

----------
This listing pairs compounds with measured melting point.

Below, each entry is followed by its recorded melting point result.
Assign melting point to the following record: CC(=O)OCc1ccc(C=Cc2csc3ccccc23)s1
66 to 68 °C

# return recorded melting point for entry O=C(Nc1ccc(S(=O)(=O)N2CCOCC2)cc1)c1cc(Cl)ccc1[N+](=O)[O-]
243 to 245 °C

Hello, please tell me recorded melting point for this one: C=CCc1cc2c(cc1O)CCC(=O)N2CC=C(C)C
148 to 150 °C

Fill in melting point for record CN(C)C(=O)N(N=Cc1ccc(OC(F)(F)C(F)F)cc1)C(=N)NN=Cc1ccc(OC(F)(F)C(F)F)cc1
142 to 144 °C

Indicate the recorded melting point value for this compound: O=C(CN1CCC(Cc2ccccc2)CC1)Nc1ccc2c(c1)OCC(=O)N2
184 to 188 °C

Give melting point for the following compound: CCCCCCCCCCCCCCCCCCOc1cc(OCCOc2ccc3ccccc3c2)cc(C(=O)OCc2ccccc2)c1
62 to 65 °C

Quote melting point reported for N#Cc1cc(C(=O)CBr)ccc1N please.
162 to 165 °C

Return the recorded melting point value; entry: CCOc1cc(CCCOc2c(CC(=O)O)cccc2OC)n(Cc2ccc(Cl)cc2Cl)n1
109 to 110 °C

Note down melting point recorded for COc1ccc(Cl)cc1C(=O)CCC(=O)O
113 to 115 °C

---
Input Clc1cccc(-n2ccnc2)n1 , output reported melting point.
71 to 73 °C

----------
READOUT: melting point

Specify reported melting point for the molecule shown: N#Cc1c[nH]cc1-c1ccccc1
123 to 125 °C

Note melting point for the molecule shown: CCN1CC(c2ccccc2)=C(O)C1=O
192 to 195 °C

Specify melting point for O=c1c2c(Cc3ccccc3)n[nH]c2c2cccnc2n1-c1cccc(OC(F)(F)F)c1 and stop.
249 to 251 °C

Tell me melting point reported for O=C(C=CC[C@H]1NC(=O)[C@@H]1N1C(=O)c2ccccc2C1=O)OCc1ccccc1
115 to 120 °C

Item O=C(O)c1nn(-c2c(Cl)cc(C(F)(F)F)cc2Cl)cc1OC(F)F : provide melting point
180 to 183 °C

Please indicate melting point recorded for O=C=NCCC12CCCn3c1c(c1ccccc13)CCO2 (stereo not given)
89 to 91 °C

// fetch melting point given entry COC(=O)c1cc(-c2cccc(C(F)(F)F)c2)c(=O)n2c1-c1sccc1SCC2
190 to 191 °C

Fill in reported melting point for this entry: COC(=O)CCCOc1cc([N+](=O)[O-])c(CBr)cc1OC
68 to 70 °C

For the molecule CCCCc1nc(C(C)O)c(C(=O)O)n1Cc1ccc(-c2ccccc2C(=O)O)cc1 (stereo not given) , report melting point.
168 to 170 °C

// fetch melting point given entry NNC(=O)Nc1cccc2c1C(=O)c1c-2n[nH]c1-c1ccc(N2CCNCC2)cc1
257 °C

Others:
# return recorded melting point for input O=C(c1ccc(F)cc1)C1CCN(CCCn2c(=O)[nH]c3cccc(Cl)c32)CC1
138 °C

Give a short answer stating reported melting point for CC(C)(C)OC(=O)N(O)C(=O)CN .
115 to 117 °C

Determine from records and report melting point for CC(=O)NC1(c2ccccc2)CCN(CC[C@@H](c2ccc(Cl)c(Cl)c2)[C@@H](O)c2cnnn2-c2ccccc2)CC1 (racemic)
125 to 128 °C

Supply measured melting point of CC(C(O)c1ccc(OCc2ccccc2)c(OCc2ccccc2)c1)N1CCC(n2c(=O)[nH]c3ccccc32)CC1 (stereo not given) in your reply.
146 to 148 °C

Using the record for O=C1NCCN1c1ccc(S(=O)(=O)Nc2ccc3c(c2)CCC3)cc1 , state its measured melting point.
228 to 230 °C

Entry COc1ccc(O)c(NC(C)=O)c1 needs its melting point filled in; supply it.
156 to 157 °C

Supply recorded melting point for CNC(=O)c1cc(=NS(=O)(=O)c2ccccc2)c2c(Cl)cc(Cl)cc2[nH]1 here.
196 to 197 °C

Using known records, supply melting point for O=C1c2cccc3cc(F)cc(c23)C(=O)N1O
244 to 247 °C

Note melting point for the molecule shown: Cc1ccc(S(=O)(=O)OCC(O)Cc2cc(Cl)c3ccccc3c2OCc2ccccc2)cc1 (stereo not given)
85 to 87 °C

Provide measured melting point value, entry: Clc1ccc(-n2c(Cl)nc3ccccc32)c(Cl)c1
80 to 83 °C
